This collection of values is drawn from ChEMBL document CHEMBL1123202.

species: Mus musculus; experiment: Compound was tested for inhibition of mouse connective tissue cell (L) growth at a concentration of 100 uM; format: functional; conditions: Mus musculus
Overview of reported inhibition at 100 µM across a group of molecules:
Report the figure in % without appending any unit label.

c1cc2[nH]cnc2cn1 = 12
OC[C@H]1O[C@@H](n2cnc3c(S)nccc32)C[C@@H]1O = 8
CSc1nccc2c1ncn2[C@H]1C[C@H](O)[C@@H](CO)O1 = 30
OC[C@H]1OC(n2cnc3c(Nc4ccccc4)nccc32)[C@H](O)[C@@H]1O (stereo partly specified) = 18
[N-]=[N+]=Nc1[nH]ccc2ncnc1-2 = 20

Query: Give inhibition at 100 µM for the following molecule: [N-]=[N+]=Nc1nccc2c1ncn2C1O[C@H](CO)[C@@H](O)[C@H]1O (stereo partly specified)
Result: 8

Query: Give inhibition at 100 µM for the following molecule: CNc1nccc2c1ncn2C1O[C@H](CO)[C@@H](O)[C@H]1O (stereo partly specified)
Result: 21

Query: Give inhibition at 100 µM for the following molecule: OC[C@H]1OC(n2cnc3c(Cl)nccc32)[C@H](O)[C@@H]1O (stereo partly specified)
Result: 27

Query: Give inhibition at 100 µM for the following molecule: CN(C)c1nccc2c1ncn2C1O[C@H](CO)[C@@H](O)[C@H]1O (stereo partly specified)
Result: 14

Query: Give inhibition at 100 µM for the following molecule: "Nc1nccc2c1ncn2[C@H]1C[C@H](O)[C@@H](CO)O1"
Result: 0

Query: Give inhibition at 100 µM for the following molecule: [O-][n+]1ccc2c(c1)ncn2C1O[C@H](CO)[C@@H](O)[C@H]1O (stereo partly specified)
Result: 3

---

Overview of reported inhibition at 100 µM across a group of molecules:
tested on: EL4; assay: Inhibition of lymphocyte-mediated cytolysis at a concentration of 100 uM in [51Cr]- labelled EL4 leukemia cells; assay type: functional; settings: Mus musculus

Observe how each entry below is paired with its result.
[O-][n+]1ccc2[nH]cnc2c1 = 5%
[N-]=[N+]=Nc1[nH]ccc2ncnc1-2 = < 5%
OC[C@H]1OC(n2cnc3c(S)nccc32)[C@H](O)[C@@H]1O (some centres not stated) = < 5%

Query: Give inhibition at 100 µM for the following molecule: "CCNc1[nH]ccc2ncnc1-2"
Result: < 5%

Query: Give inhibition at 100 µM for the following molecule: "OC[C@H]1O[C@@H](n2cnc3c(SCc4ccccc4)nccc32)C[C@@H]1O"
Result: 11%

Query: Give inhibition at 100 µM for the following molecule: OC[C@H]1OC(n2cnc3c(SCc4ccccc4)nccc32)[C@H](O)[C@@H]1O (some centres not stated)
Result: 30%

Query: Give inhibition at 100 µM for the following molecule: "CNc1[nH]ccc2ncnc1-2"
Result: < 5%

---

system: EL4; experiment: Inhibition of lymphocyte-mediated cytolysis at a concentration of 100 uM in [51Cr]- labelled EL4 leukemia cells; type: functional; details: Mus musculus
Overview of reported inhibition at 100 µM across a group of compounds:

Observe how each entry below is paired with its result.
[O-][n+]1ccc2c(c1)ncn2[C@H]1C[C@H](O)[C@@H](CO)O1 = < 5%
Nc1nccc2c1ncn2[C@H]1C[C@H](O)[C@@H](CO)O1 = 89%
OC[C@H]1O[C@@H](n2cnc3c(NCc4ccccc4)nccc32)C[C@@H]1O = 8%
OCCNc1[nH]ccc2ncnc1-2 = < 5%
c1ccc(CNc2[nH]ccc3ncnc2-3)cc1 = 57%
C[C@H]1OC(n2cnc3c(N)nccc32)[C@H](O)[C@@H]1O (some centres not stated) = 32%
c1ccc(CSc2[nH]ccc3ncnc2-3)cc1 = 20%
CNc1nccc2c1ncn2C1O[C@H](CO)[C@@H](O)[C@H]1O (some centres not stated) = 11%

Continue with the compound presented below.
Query: Give inhibition at 100 µM for the following compound: OC[C@H]1OC(n2cnc3c(NCc4ccccc4)nccc32)[C@H](O)[C@@H]1O (some centres not stated)
Result: 5%

---

Overview of reported inhibition at 100 µM across a group of compounds:
system: EL4; experiment: Inhibition of lymphocyte-mediated cytolysis at a concentration of 100 uM in [51Cr]- labelled EL4 leukemia cells; type: functional; conditions: Mus musculus
Report the figure in % without appending any unit label.

Observe how each entry below is paired with its result.
OCCNc1nccc2c1ncn2C1O[C@H](CO)[C@@H](O)[C@H]1O (stereo not given in full) = 6
Nc1nccc2c1ncn2[C@@H]1O[C@H](CO)[C@@H](O)[C@H]1O = 80

Query: Give inhibition at 100 µM for the following compound: "[N-]=[N+]=Nc1nccc2c1ncn2[C@H]1C[C@H](O)[C@@H](CO)O1"
Result: 13

---

test system: EL4; test: Inhibition of lymphocyte-mediated cytolysis at a concentration of 100 uM in [51Cr]- labelled EL4 leukemia cells; assay type: functional; conditions: Mus musculus
Overview of reported inhibition at 100 µM across a group of compounds:

Observe how each entry below is paired with its result.
Sc1[nH]ccc2ncnc1-2 = < 5%
c1cc2[nH]cnc2cn1 = < 5%
CCCCCCNc1nccc2c1ncn2C1O[C@H](CO)[C@@H](O)[C@H]1O (stereo partly drawn) = 14%
OC[C@H]1O[C@@H](n2cnc3c(S)nccc32)C[C@@H]1O = < 5%
OC[C@H]1OC(n2cnc3c(Cl)nccc32)[C@H](O)[C@@H]1O (stereo partly drawn) = < 5%
CSc1nccc2c1ncn2[C@H]1C[C@H](O)[C@@H](CO)O1 = < 5%
CCCCCCNc1[nH]ccc2ncnc1-2 = 100%

Continue with the compound presented below.
Query: Give inhibition at 100 µM for the following compound: OC[C@H]1OC(n2cnc3c(Nc4ccccc4)nccc32)[C@H](O)[C@@H]1O (stereo partly drawn)
Result: 10%

---

Overview of reported inhibition at 100 µM across a group of compounds:
species on record: Mus musculus; experiment: Compound was tested for inhibition of mouse connective tissue cell (L) growth at a concentration of 100 uM; type: functional; settings: Mus musculus

[O-][n+]1ccc2c(c1)ncn2[C@H]1C[C@H](O)[C@@H](CO)O1 = 13%
CC1OC(n2cnc3c(N)nccc32)CC1O (stereo unspecified) = 12%
CSc1nccc2c1ncn2C1O[C@H](CO)[C@@H](O)[C@H]1O (stereo partly specified) = 40%
c1ccc(Nc2[nH]ccc3ncnc2-3)cc1 = 34%
OC[C@H]1O[C@@H](n2cnc3cnccc32)C[C@@H]1O = 0%

Continue with the compound presented below.
Query: Give inhibition at 100 µM for the following compound: "[N-]=[N+]=Nc1nccc2ncn([C@H]3C[C@H](O)[C@@H](CO)O3)c12"
Result: 2%

---

organism: Mus musculus; experiment: Compound was tested for inhibition of mouse connective tissue cell (L) growth at a concentration of 100 uM; type: functional; settings: Mus musculus
MEASUREMENT_LABEL: inhibition at 100 µM (%)
Report the figure in % without appending any unit label.

Observe how each entry below is paired with its result.
CN(C)c1nccc2c1ncn2[C@H]1C[C@H](O)[C@@H](CO)O1 = 6
CCNc1nccc2c1ncn2C1O[C@H](CO)[C@@H](O)[C@H]1O (stereo not given in full) = 20
OC[C@H]1O[C@@H](n2cnc3c(Cl)nccc32)C[C@@H]1O = 25
OCCNc1nccc2c1ncn2C1O[C@H](CO)[C@@H](O)[C@H]1O (stereo not given in full) = 3
CSc1[nH]ccc2ncnc1-2 = 11
OC[C@H]1O[C@@H](n2cnc3c(NCc4ccccc4)nccc32)C[C@@H]1O = 37

Query: Give inhibition at 100 µM for the following molecule: "CCNc1[nH]ccc2ncnc1-2"
Result: 11

Query: Give inhibition at 100 µM for the following molecule: "CNc1[nH]ccc2ncnc1-2"
Result: 6

Query: Give inhibition at 100 µM for the following molecule: CCCCCCNc1nccc2c1ncn2C1O[C@H](CO)[C@@H](O)[C@H]1O (stereo not given in full)
Result: 41

---

tested on: EL4; assay: Inhibition of lymphocyte-mediated cytolysis at a concentration of 100 uM in [51Cr]- labelled EL4 leukemia cells; format: functional; conditions: Mus musculus
MEASUREMENT_LABEL: inhibition at 100 µM

CN(C)c1[nH]ccc2ncnc1-2 = 25%
[N-]=[N+]=Nc1nccc2c1ncn2C1O[C@H](CO)[C@@H](O)[C@H]1O (stereo partly specified) = < 5%
OC[C@H]1O[C@@H](n2cnc3cnccc32)[C@H](O)[C@@H]1O (stereo in doubt; 16) = < 5%

Query: Give inhibition at 100 µM for the following compound: [O-][n+]1ccc2c(c1)ncn2C1O[C@H](CO)[C@@H](O)[C@H]1O (stereo partly specified)
Result: < 5%

Query: Give inhibition at 100 µM for the following compound: CC1OC(n2cnc3c(N)nccc32)CC1O (stereo unspecified)
Result: 25%

---

tested on: EL4; test: Inhibition of lymphocyte-mediated cytolysis at a concentration of 100 uM in [51Cr]- labelled EL4 leukemia cells; format: functional; conditions: Mus musculus
Overview of reported inhibition at 100 µM across a group of molecules:

Observe how each entry below is paired with its result.
CSc1[nH]ccc2ncnc1-2 = < 5%
c1ccc(Nc2[nH]ccc3ncnc2-3)cc1 = 26%

Query: Enter recorded inhibition at 100 µM with EL4 for "Nc1[nH]ccc2ncnc1-2" here.
Result: < 5%
